System: Plasmodium falciparum
Assay summary: In vitro antimalarial activity against chloroquine-resistant Plasmodium falciparum K1

{"Compound": "C[C@H]1[C@@H](CCO)O[C@@H]2OC3(C)CC[C@H]4[C@H](C)CC[C@@H]1[C@@]24OO3 (single isomer, unassigned)", "IC50 [nM]": 6.67}
{"Compound": "C[C@H]1[C@@H](CCOC(=O)c2ccc(C(F)(F)F)cc2)O[C@@H]2OC3(C)CC[C@H]4[C@H](C)CC[C@@H]1[C@@]24OO3 (single isomer, unassigned)", "IC50 [nM]": 14.2}
{"Compound": "C[C@@H]1CC[C@H]2[C@@H](C)C(=O)O[C@@H]3O[C@@]4(C)CC[C@@H]1[C@]32OO4", "IC50 [nM]": 3.6}
{"Compound": "C[C@H]1[C@@H](CCOCc2ccc(F)cc2)O[C@@H]2OC3(C)CC[C@H]4[C@H](C)CC[C@@H]1[C@@]24OO3 (single isomer, unassigned)", "IC50 [nM]": 6.08}
{"Compound": "C[C@H]1[C@@H](O)O[C@@H]2O[C@@]3(C)CC[C@H]4[C@H](C)CC[C@@H]1[C@@]24OO3", "IC50 [nM]": 2.2}
{"Compound": "C[C@H]1[C@@H](CCOC(=O)c2ccccc2F)O[C@@H]2OC3(C)CC[C@H]4[C@H](C)CC[C@@H]1[C@@]24OO3 (single isomer, unassigned)", "IC50 [nM]": 1.12}
{"Compound": "C[C@H]1[C@@H](CCOC(=O)c2cccc(F)c2)O[C@@H]2OC3(C)CC[C@H]4[C@H](C)CC[C@@H]1[C@@]24OO3 (single isomer, unassigned)", "IC50 [nM]": 3.78}
{"Compound": "C[C@H]1[C@@H](CCOC(=O)c2ccc(F)cc2)O[C@@H]2OC3(C)CC[C@H]4[C@H](C)CC[C@@H]1[C@@]24OO3 (single isomer, unassigned)", "IC50 [nM]": 1.92}
{"Compound": "C[C@H]1[C@@H](CCOC(=O)c2cccc(C(F)(F)F)c2)O[C@@H]2OC3(C)CC[C@H]4[C@H](C)CC[C@@H]1[C@@]24OO3 (single isomer, unassigned)", "IC50 [nM]": 4.7}
{"Compound": "C[C@H]1[C@@H](CCOCc2ccccc2C(F)(F)F)O[C@@H]2OC3(C)CC[C@H]4[C@H](C)CC[C@@H]1[C@@]24OO3 (single isomer, unassigned)", "IC50 [nM]": 3.6}
{"Compound": "C[C@H]1[C@@H](CCOCc2cccc(F)c2)O[C@@H]2OC3(C)CC[C@H]4[C@H](C)CC[C@@H]1[C@@]24OO3 (single isomer, unassigned)", "IC50 [nM]": 6.43}
